# Test description: Aqueous solubility of the compound at pH 6
# Assay type: physicochemical
# Condition details: aqueous medium
Parameter: solubility. Scope: all listed entries.
Recorded endpoint: solubility (µg/mL)

Molecule: Cc1cccc(C)c1NC(=O)c1cc(-c2ccccc2)nc2ccccc12
Recorded endpoint: solubility
Operator symbol: <
Number: 1
//
Molecule: CCc1nc2c(C)nc(C)cc2n1-c1ccc(CCNC(=O)NS(=O)(=O)c2ccc(C)cc2)cc1 [GRAPIPRANT]
Recorded endpoint: solubility
Operator symbol: =
Number: 977

---

# Tgt: Prostaglandin E2 receptor EP4 subtype (Homo sapiens, UniProt P35408)
# Sequence (P35408 whole entry): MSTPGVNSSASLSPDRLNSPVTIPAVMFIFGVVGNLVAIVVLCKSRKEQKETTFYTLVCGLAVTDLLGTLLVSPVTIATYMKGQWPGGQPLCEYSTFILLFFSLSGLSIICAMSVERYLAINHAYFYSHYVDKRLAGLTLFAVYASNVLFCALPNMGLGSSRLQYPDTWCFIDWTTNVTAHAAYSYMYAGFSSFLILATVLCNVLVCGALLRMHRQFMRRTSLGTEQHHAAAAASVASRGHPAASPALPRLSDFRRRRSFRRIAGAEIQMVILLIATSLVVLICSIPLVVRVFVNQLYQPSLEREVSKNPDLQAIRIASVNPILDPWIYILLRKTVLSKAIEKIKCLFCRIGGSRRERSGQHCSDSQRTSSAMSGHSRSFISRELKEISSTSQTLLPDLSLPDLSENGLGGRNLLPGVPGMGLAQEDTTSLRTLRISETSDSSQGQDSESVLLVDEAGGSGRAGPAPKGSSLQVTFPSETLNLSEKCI
# Test description: Antagonist activity at human EP4 receptor in HEK293 cells assessed as inhibition of PGE2-induced cAMP accumulation
# Type: functional, cell-based
pIC50: −log10 of the molar value.

Entry smiles: Cc1ccc(C(=O)O)c(C)c1NC(=O)c1cc(-c2ccccc2)cc2ccccc12
pIC50: 8.25
//
Entry smiles: Cc1cc(C(=O)O)cc(C)c1NC(=O)c1cc(-c2ccccc2)nc2ccccc12
pIC50: 7.95
//
Entry smiles: Cc1cc(C(=O)O)cc(C)c1NC(=O)c1cc(-c2ccccc2)cc2ccccc12
pIC50: 8.46
//
Entry smiles: Cc1cc(C(=O)O)cc(C)c1NC(=O)c1cc(-c2cccc(CO)c2)nc2ccccc12
pIC50: 8.51
//
Entry smiles: Cc1cccc(C)c1NC(=O)c1cc(-c2ccccc2)nc2ccccc12
pIC50: 6.89

This collection of values is drawn from ChEMBL document CHEMBL3739413.
